Would you mind telling me the reported composite z-score of each entry?
# Assayed Target: Calmodulin-1 (Homo sapiens) (UniProt P0DP23)
# Assay Comment: CALM1 binders on microarrays, EGTA buffer, profiling panel, biochemical, small-molecule microarray, Cy5-labelled CALM1 (AID 1111);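 further: labelled calmodulin applied in Tris saline Tween buffer holding calcium plus EGTA and DTT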
# Assay Context: Cy5-CALM1 binding fluorescence, higher = more signal
The answer should be written as a number, with no unit following it.

# CC(C)(C)OC(=O)CC[C@]1(C(=O)N2CCOCC2)N=C(c2ccc(OCCCO)cc2)O[C@H]1c1ccccc1 with Calmodulin-1 (Homo sapiens) (UniProt P0DP23): composite z-score is 0.0137

Entry CON(C)C(=O)C=C1C[C@@H](c2cccc(Cl)c2)O[C@@H](c2cccc(Cl)c2)O1 ; assay system Calmodulin-1 (Homo sapiens) (UniProt P0DP23); composite z-score recorded at 0.389

Known value: Calmodulin-1 (Homo sapiens) (UniProt P0DP23) composite z-score of the compound C=C(C(=O)CC[C@H](OC(=O)c1cccnc1)c1cccc(OCCO)c1)C(C)C equals -1.21

Reading of composite z-score for COc1ccc([Si](C)(C)[C@H]2[C@H](CCO)O[C@@]3(C(=O)N(Cc4cccc(N5CCCCC5=O)c4)c4ccccc43)[C@@H]2C)cc1 with Calmodulin-1 (Homo sapiens) (UniProt P0DP23): 0.557

* * *

# Assayed Target: E3 ubiquitin-protein ligase XIAP (Homo sapiens)
# Assay Comment: XIAP binders, primary screen, biophysical, small-molecule microarray, fluorescence 635 nm (AID 1181);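 further: score merges 667 nm emission and signal to noise over triplicate slides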
# Assay Context: small-molecule microarray binding, higher = more signal
Property Measured: composite z-score
Number, no unit, nothing else.

Record CN(C)CCCNC(=O)[C@@H]1c2ccccc2C(=O)N(CC23CC4CC(CC(C4)C2)C3)[C@H]1c1ccc(CO)cc1 . Reported composite z-score: 0.0973

Value of measured composite z-score for the entry CCOC(=O)C1=CC[C@@H](c2ccccc2)N(S(=O)(=O)c2ccc(C)cc2)C1 : 0.0975

The reported value for COC(=O)[C@@]1(Cc2ccccc2)[C@H]2c3cc(C(=O)N4CCCC4)[nH]c3C[C@H]2CN1C(=O)c1ccccc1 in terms of composite z-score is -0.247

Input COCC(=C=CC[C@H](O)c1ccc(OCCO)cc1)C[C@H](O)COCc1ccccc1 . Output composite z-score: -0.0238

* * *

Kindly state z-score for each of the entries shown.
# Assay Comment: CREB reporter modulators without forskolin, primary screen, cell-based, PC12, CRE-LacZ reporter, unstimulated (AID 1145)
# Assay Context: no forskolin, luminescence, 4.5 h, higher = more signal, called active from +8 up or from −8 down
Form: value (number only, do not type unit).

Sample CCOC(=O)C[C@H]1[C@H](OC(=O)c2ccccc2-c2ccccc2)[C@@H](NC(=O)c2ccc3ccccc3n2)c2cc(OCCCO)ccc2N1C(=O)c1ccc2ccccc2n1 ; z-score observed: 1.22

Value of measured z-score for the entry C=CCNC(=O)[C@@H]1[C@H]2C(=O)O[C@H](c3ccccc3)[C@H](c3ccccc3)N2[C@H](c2ccc(OCCO)cc2)[C@@]12C(=O)N(C(=O)OCCOC)c1ccc(C#CC3=CCCCC3)cc12 : 0.2

Please fill in: z-score reported for COc1ccc([Si](C)(C)[C@@H]2[C@@H](CC(=O)N3CCC[C@H]3CO)O[C@]3(C(=O)N(Cc4ccc(N5C(=O)c6cccc7cccc5c67)cc4)c4ccccc43)[C@H]2C)cc1 = 0.995

Query O=C1c2ccccc2[C@](Cc2ccccc2I)(C(=O)NCCN2CCOCC2)[C@H](c2ccc(CO)cc2)N1Cc1ccccc1 yields z-score of 0.649

CN(C)CCCN1C(=O)[C@@]2(c3ccc([N+](=O)[O-])cc3)CC(=O)N(CC34CC5CC(CC(C5)C3)C4)[C@@H]2c2ccc(CO)cc21 yielded z-score of -0.0259

Record COC(=O)[C@@]1(Cc2ccccc2)[C@H]2c3cc(C(=O)N4CCCC4)n(Cc4cc(F)cc5c4OCOC5)c3C[C@H]2CN1C(=O)c1ccccc1 . Reported z-score: -0.185

* * *

# Tested on: wheat germ agglutinin (Triticum aestivum), Alexa647-labelled
# Assay Comment: wheat germ agglutinin binders on compound microarrays, profiling panel, artefact control for SMM control-protein annotation, biochemical, small-molecule microarray, 635/667 nm fluorescence (AID 1140);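 further: score merges 667 nm feature emission with signal to noise over triplicate slides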
# Assay Context: WGA-A647 binding, 635 nm fluorescence, higher = more signal
Property Measured: composite z-score
// no unit, no text: just the number

The recorded composite z-score for C=C(COC)/C(=C/C[C@@H](OC(=O)c1ccncc1)c1cccc(OCCO)c1)c1cnc2ccccc2c1 is 1.55

Measured composite z-score of Cc1ccc(S[C@]2(C(=O)NC(C)C)CC(=O)N(C3Cc4ccccc4C3)[C@@H]2c2ccc(CO)cc2I)cc1 : -0.412

The molecule CCOC(=O)C[C@H]1[C@H](OC(=O)c2ccc(-c3ccccc3)cc2)[C@@H](NC(=O)C2CCCCC2)c2cc(OCCCO)ccc2N1C(=O)c1ccccc1 showed composite z-score equal to 0.207

// COCCOC(=O)N1C(=O)[C@@]2(c3cc(C#CC4=CCCCC4)ccc31)[C@H](c1ccccc1OCCO)N1[C@H](c3ccccc3)[C@H](c3ccccc3)OC(=O)[C@H]1[C@@H]2C(=O)N1CCc2cc(OC)c(OC)cc2C1 : composite z-score value = 0.441

Summary for this molecule, COc1cc2c(cc1O)C(C)N(Cc1cc3c(cc1Br)OCO3)CC2 (stereo unspecified) : composite z-score is -0.55

Quick note, composite z-score for NC(N)=NCc1cn(CCc2c[nH]c3ccccc23)nn1 landed at 0.0932

// recorded composite z-score for NCCCCCNC(=O)[C@@H]1C[C@@H]2C(=O)N[C@@H](CCCCN)C(=O)N2[C@@H]1c1cccc(OCCO)c1 : 0.715

Entry C=C(C(=O)CC[C@H](OC(=O)c1cccnc1)c1cccc(OCCO)c1)C(C)C — recorded composite z-score = -0.168

Lab book: composite z-score of Cc1ccc(S[C@]2(C(=O)NCCN3CCOCC3)CC(=O)N(Cc3ccccc3C(F)(F)F)[C@@H]2c2ccc(CO)cc2I)cc1 noted as -0.194

Value of measured composite z-score for the entry C=C(/C=C/CNS(=O)(=O)c1ccc(C)cc1)[C@H](O)[C@H]1CCCN1S(=O)(=O)c1ccccc1[N+](=O)[O-] : 0.299

get_value(item= C=C(CCCC)/C(=C/C[C@@H](OC(=O)c1ccncc1)c1cccc(OCCO)c1)c1cnc2ccccc2c1 , readout=composite z-score) returns 0.871

For this molecule ( CCCNC(=O)[C@@]1(c2ccc([N+](=O)[O-])cc2)CC(=O)N(C2CCCCC2)[C@@H]1c1ccc(CO)cc1I ), measured composite z-score is 1.1

The molecule identified as COCC(=C=CC[C@H](O)c1cccc(OCCO)c1)C[C@H](O)c1ccccn1 registered its composite z-score at 0.613

Form: molecule = O=C(N1CCCCC1)[C@@]1(Cc2ccccc2)COC(c2ccc(OCCCO)cc2)=N1 ; composite z-score = 1.12

Documented composite z-score of [N-]=[N+]=NCc1ccccc1C[C@@]1(C(=O)NCCN2CCOCC2)N=C(c2ccc(OCCCO)cc2)O[C@@H]1c1ccccc1N=[N+]=[N-] : 0.963

Value of measured composite z-score for the entry C#CCNC(=O)[C@H](Cc1ccccc1)NC(=O)[C@@H](N=[N+]=[N-])C(C)C : 0.349

* * *

Would you mind telling me the reported z-score of each entry?
# Assay Comment: mitochondrial membrane potential change in A549 cells, profiling panel, cell-based, JC-1 fluorescence, basal, 24 h, 100 nL (AID 1138);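 further: A549 lung adenocarcinoma cells under basal conditions with no added stimulus; test concentration not given here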
# Assay Context: higher = more signal
The response must contain the number and no unit.

Measured z-score, CCOc1cc(C(O)C2C=CC3C(=O)N(C4CCCCC4)C(=O)C3N2Nc2ccc(OC)cc2)ccc1O (stereo not drawn) : 0.786

Documented z-score of O=C1c2ccccc2[C@@]2(Cc3ccccc3N(C3CC3)C2=O)[C@H](c2ccc(CO)cc2)N1C1CCCCC1 : 0.306

The measured z-score associated with CC(C)(C)OC(=O)CC[C@]1(C(=O)N2CCOCC2)N=C(c2ccc(OCCCO)cc2)O[C@H]1c1ccccc1 reads 2.23

Lab note: CCOC(=O)C1=CC[C@@H](c2ccc([N+](=O)[O-])cc2)N(S(=O)(=O)c2ccc(C)cc2)[C@H]1c1ccccc1 gave z-score of 1.26

Sample CC[C@@H]1[C@H]2C3C(=O)N(CC)C(=O)C3CC(=O)[C@H]2[C@H](c2ccc(C)cc2)N1S(=O)(=O)c1ccc(C)cc1 (stereo partly drawn) ; z-score observed: 1.18

Form: compound = C[n+]1ccc(CCCO)cc1 ; z-score = -0.195

Noted for C[C@H]1ON(c2ccc(C(=O)OC(C)(C)C)cc2)[C@@H](c2ccc(O)cc2)[C@@H]1C(=O)N1C(=O)OC[C@@H]1c1ccccc1 : its z-score reads -0.802

Briefly, z-score measured for CCCC[C@@H]1C[C@H]1[C@@H](NC(=O)c1ccccc1)c1ccc(Cl)cc1 : 1.66

Entry NC(=O)NCC#Cc1ccc2c(c1)[C@]1(C(=O)N2)[C@H](C(=O)Nc2nc3ccccc3s2)[C@H]2C(=O)O[C@H](c3ccccc3)[C@H](c3ccccc3)N2[C@@H]1c1ccc(O)cc1 — recorded z-score = -2.41

Record summary for Cc1ccc(F)cc1S(=O)(=O)N[C@@H]1CCN(Cc2ccc(OC(C)C)cc2)C1 : reported z-score = 1.14

Form: compound = O=C1NCC(=O)N2[C@@H]1C[C@@H](C(=O)O)[C@H]2c1ccc(O)cc1 ; z-score = 0.563

So, CC(C)C(O)C1C=CC2C(=O)N(C)C(=O)C2N1N(c1ccccc1)c1ccccc1 (stereo not drawn) ? Its z-score was 0.953

Lab book: z-score of COC(=O)C1(Cc2ccccc2)C=C2C(=C(c3ccccc3)C(=O)C2C)CN1 (stereo not drawn) noted as 0.408

The value of z-score measured for the compound CC(C)CN1C(=O)[C@@]2(Cc3ccccc31)c1ccccc1C(=O)N(Cc1ccccc1C(F)(F)F)[C@H]2c1ccc(CO)cc1 turned out to be 0.39

O=C(N1CCCCC1)[C@@]1(Cc2ccccc2)COC(c2ccc(OCCCO)cc2)=N1 yielded z-score of 1.22

GET /value?item= COc1ccc([Si](C)(C)[C@@H]2[C@@H](CCn3cc([C@H](O)c4ccccc4)nn3)O[C@]3(C(=O)N(Cc4ccc(N5CCOC5=O)cc4)c4ccccc43)[C@H]2C)cc1 &field=z-score returns 0.708

The value of z-score measured for the compound [N-]=[N+]=NCc1ccccc1C[C@]1(C(=O)NCC(O)CO)N=C(c2ccc(OCCCO)cc2)O[C@H]1c1ccccc1CN=[N+]=[N-] (stereo partly drawn) turned out to be 0.618

// field: z-score; key: COCCCNC(=O)[C@]1(Cc2ccccc2CN=[N+]=[N-])N=C(c2ccc(OCCCO)cc2)O[C@@H]1c1ccccc1 ; value = 1.06

Value of measured z-score for the entry COCCOC(=O)N1C(=O)[C@@]2(c3cc(C#Cc4ccc(OC)cc4)ccc31)[C@H](C(=O)NC[C@H](O)c1ccccc1)[C@H]1C(=O)O[C@H](c3ccccc3)[C@H](c3ccccc3)N1[C@@H]2c1ccc(O)cc1 : -1.47

The recorded z-score for entry NC(=O)NCC#Cc1ccc2c(c1)[C@]1(C(=O)N2)[C@H](C(=O)O)[C@H]2C(=O)O[C@H](c3ccccc3)[C@H](c3ccccc3)N2[C@@H]1c1ccccc1OCCO equals 0.246

Data point: CC[C@H]1C2=C3C(CC[C@H]4C(OCc5ccc(F)cc5C(F)(F)F)OC[C@](C)([C@@H]34)N(C(=O)OC(C)(C)C)C2)C2COC(=O)OCC21 (stereo partly drawn) ; z-score = 1.86

According to the records, this compound CCCN1C(=O)[C@]2(Cc3ccccc3)N=C(c3ccc(OCCCO)cc3)O[C@@H]2c2ccccc21 displays z-score of 1.44

compound O=C1C2C=CC(C(O)c3cc(C(F)(F)F)cc(C(F)(F)F)c3)N(Nc3ccc([N+](=O)[O-])cc3)C2C(=O)N1c1ccccc1 (stereo not drawn) , z-score observed: -0.953

# compound O=c1cccc(-c2ccc(C(F)(F)F)cc2)o1 ; its z-score = 0.77

// sample O=C1OCC=C[C@H]2OC34C=CCN(c5ccc(Cl)cc5)C(=O)[C@H]3N(CCCCCO)C(=O)[C@@H]4[C@@H]12 (stereo partly drawn) , its z-score was 0.731

Lab note: C=C[C@H](COC(C)=O)NS(=O)(=O)c1ccc(Br)cc1 gave z-score of 0.695

// z-score lookup, compound = NC(=O)N1C(=O)C2C(C1=O)C1C=C(CCCO)C2C(c2cccs2)N1Cc1cc2c(cc1Br)OCO2 (stereo not drawn) , result: 0.707

Lab note: COc1ccc(C(O)C2C=CC3C(=O)N(C)C(=O)C3N2N2CCCCC2)cc1 (stereo not drawn) gave z-score of 0.406

Data point: CC=CC(O)C1C=CC2C(=O)N(c3ccccc3)C(=O)C2N1Nc1ccccc1 (stereo not drawn) ; z-score = 0.714

Looking up O=C1O[C@@H](c2ccccc2)[C@@H](c2ccccc2)N2[C@@H](c3ccccc3OCCO)[C@]3(C(=O)Nc4ccc(C#CC5=CCCCC5)cc43)[C@@H](C(=O)NC[C@H](O)c3ccccc3)[C@H]12 , I see its z-score listed as -1.69

compound Cc1ccc(S[C@]2(C(=O)NCCN3CCOCC3)CC(=O)N(Cc3ccccc3C(F)(F)F)[C@@H]2c2ccc(CO)cc2I)cc1 , z-score observed: -0.695

Entry under test: CCOC(=O)C1=CC[C@@H](c2cc(Cl)ccc2Cl)N(S(=O)(=O)c2ccc(C)cc2)[C@H]1c1ccc(OC)cc1 . Its z-score was 0.581

Entry CC(C)N1CC=CC23O[C@@H]4C=CCCOC(=O)C4[C@H]2C(=O)N(CCO)[C@@H]3C1=O (stereo partly drawn) ; z-score = -0.467
